Reported TGI values follow for various molecules
System: TK-10 renal
Assay: NCI tumour cell line growth inhibition, 48 h

A selection of reference data follows.
molecule: c1cc(N2CCN(c3ccc(C4=NCCCN4)cc3)CC2)ccc1C1=NCCCN1
measured-target: TK-10 renal
value-measured: > 100 µM
--
molecule: CN(C)CCNC(=O)c1cccc2c(NC(CCC(N)=O)C(=O)O)c3ccccc3nc12 (centres undefined)
measured-target: TK-10 renal
value-measured: > 100 µM
--
molecule: N#CNc1nc(N)c(-c2ccc(Cl)cc2)c(C(=O)Nc2nccs2)n1
measured-target: TK-10 renal
value-measured: > 100 µM
--
molecule: CCC(=O)Nc1ccc(N2C(=O)/C(=C/c3ccc(OC)cc3)N=C2c2ccccc2)cc1
measured-target: TK-10 renal
value-measured: > 50 µM
--
molecule: CCN(CC)C1Oc2cc3c(cc2C(c2cccc(OC)c2OC)C1C)OCO3 (centres undefined)
measured-target: TK-10 renal
value-measured: 46.3 µM

[in] Fill in: TGI of `O=C(CN1N=C(c2ccc(F)cc2)CCC1=O)Nc1nc2ccccc2s1` is ___
[out] > 100 µM

[in] Fill in: TGI of `COc1cc2ncc3c(nc4sccn43)c2cc1OC` is ___
[out] 29.5 µM

[in] Fill in: TGI of `COC(=O)c1cc(-c2ccc(OC)c(OC)c2)[nH]c1N/N=C/c1c(Cl)cccc1Cl` is ___
[out] 9.47 µM

[in] Fill in: TGI of `COc1cc(Nc2nc3cc(C(F)(F)F)ccc3n3cccc23)cc(OC)c1OC` is ___
[out] > 100 µM

====

Tested on: COLO 205 colon
Assay: NCI tumour cell line growth inhibition, 48 h
Reported TGI values follow for various compounds

structure-smiles-string: Cc1ccncc1C(N)=O
value-measured: > 100 µM

[in] Fill in: TGI of `c1ccc(N=C2c3ccsc3C(=Nc3ccccc3)c3ccsc32)cc1` is ___
[out] 6.01 µM

[in] Fill in: TGI of `NC(N)=NCCC(O)(P(=O)(O)O)P(=O)(O)O` is ___
[out] > 100 µM

[in] Fill in: TGI of `CC(=O)O[C@@H]1C[C@@]2(C)[C@@H]3CC=C4[C@@H](C[C@H](O)C(=O)C4(C)C)[C@]3(C)C(=O)C[C@]2(C)[C@H]1[C@@](C)(O)C(=O)/C=C/C(C)(C)OC(C)=O` is ___
[out] > 39.7 µM

[in] Fill in: TGI of `O=Cc1ccc2c(c1I)OCO2` is ___
[out] > 100 µM

====

Test system: MCF7 breast
Experiment: NCI tumour cell line growth inhibition, 48 h
Answer not satisfied if TGI is under 3 µM, and satisfied if it is 3 µM or more.

Check out these entries, answers already filled in.
compound: CC1CC(C#N)=C2NCCN2C1=O (centres undefined)
measured-target: MCF7 breast
assigned-label: satisfied
//
compound: Cc1[nH]c(-c2cc(N)ccc2Cl)c2c1C(=O)CCCC2
measured-target: MCF7 breast
assigned-label: satisfied
//
compound: COc1cc(O)c2c(=O)c(OC)c(-c3ccc(OC)c(OC)c3)oc2c1
measured-target: MCF7 breast
assigned-label: satisfied
//
compound: C[CH2][Hg][S]c1ccccc1C(=O)O
measured-target: MCF7 breast
assigned-label: not satisfied
//
compound: COC(=O)c1cc(-c2ccc(OC)c(OC)c2)[nH]c1N/N=C/c1c(Cl)cccc1Cl
measured-target: MCF7 breast
assigned-label: not satisfied
//
compound: Fc1ccc(/C=N/n2c(-c3ccc(F)c(Cl)c3)n[nH]c2=S)cc1
measured-target: MCF7 breast
assigned-label: satisfied

[in] Hello, I need to know if C[C@@H]1Cc2cc(O)ccc2[C@H]2CC[C@]3(C)/C(=C/COCCN(C)C)CC[C@H]3[C@H]12 (tested in a mixture with another compound) has measured TGI not below 3 µM. Thanks!
[out] not satisfied

[in] Hello, I need to know if CC1c2ccccc2CCN1c1ccc(CO)c(Cl)c1 (centres undefined) has measured TGI not below 3 µM. Thanks!
[out] satisfied

[in] Hello, I need to know if `CC(=O)O[C@@H]1C[C@@]2(C)[C@@H]3CC=C4[C@@H](C[C@H](O)C(=O)C4(C)C)[C@]3(C)C(=O)C[C@]2(C)[C@H]1[C@@](C)(O)C(=O)/C=C/C(C)(C)OC(C)=O` has measured TGI not below 3 µM. Thanks!
[out] satisfied

====

System: 786-0 renal
Experiment: NCI tumour cell line growth inhibition, 48 h
Reported TGI values follow for various compounds
Provide only the numeric value, understood in µM.

A selection of reference data follows.
structure-smiles-string: Cn1ccnc1Oc1ccc(Cl)cc1
TGI / µM: 24.7

structure-smiles-string: O=C(CN1N=C(c2ccc(F)cc2)CCC1=O)Nc1nc2ccccc2s1
TGI / µM: 0.607

[in] Query the reported TGI for 786-0 renal; item: `COc1cccc(C(=O)C#Cc2cnc(OC)nc2OC)c1`
[out] 3.61

[in] Query the reported TGI for 786-0 renal; item: `N#CCN1C(=O)c2cc([N+](=O)[O-])cc3cc([N+](=O)[O-])cc(c23)C1=O`
[out] 42.8

[in] Query the reported TGI for 786-0 renal; item: `CCOC(=O)/C(I)=C/c1cc(OC)c(OC)c(OC)c1`
[out] 33

[in] Query the reported TGI for 786-0 renal; item: `c1ccc(N=C2c3ccsc3C(=Nc3ccccc3)c3ccsc32)cc1`
[out] 6.25

====

Reported TGI values follow for various molecules
Test system: SK-MEL-28 melanoma
Experiment: NCI tumour cell line growth inhibition, 48 h

A selection of reference data follows.
molecule: COc1ccc(NC(=O)C(=O)/C=C(\O)c2ccccc2)cc1
measured-target: SK-MEL-28 melanoma
TGI: > 10 µM

molecule: CC(C)(C)c1cc2nc(c1)C(C(F)(F)F)(C(F)(F)F)OB(Br)OC2(C(F)(F)F)C(F)(F)F
measured-target: SK-MEL-28 melanoma
TGI: 18.6 µM

molecule: C=CCc1cc(Nc2c3ccc(Cl)cc3nc3ccc(OC)cc23)cc(CN(CC)CC)c1O
measured-target: SK-MEL-28 melanoma
TGI: 18.1 µM

molecule: N#CCCC1(CCC#N)CCCCCCCCC(CCC#N)(CCC#N)C(O)C1O (stereo unspecified)
measured-target: SK-MEL-28 melanoma
TGI: > 100 µM

molecule: c1cc(-c2cn3c(n2)SCC3)ccn1
measured-target: SK-MEL-28 melanoma
TGI: > 100 µM

[in] Fill in: TGI of CCN1C(=O)N(CC)C2C1NN=c1s/c(=C\c3ccc(F)cc3)c(=O)n12 (stereo unspecified) is ___
[out] > 100 µM

====

Tested on: MCF7 breast
Assay: NCI tumour cell line growth inhibition, 48 h; in the data active means GI50 below about 0.43 µM; inactive means the rest
Write down the outcome that applies. Available outcomes: true (active), false (inactive)

Check out these entries, answers already filled in.
compound: O=C(Nc1ccccc1OC(=O)c1ccccc1)c1ccccc1
measured-target: MCF7 breast
assigned-label: false
--
compound: Cc1ccncc1C(N)=O
measured-target: MCF7 breast
assigned-label: false
--
compound: O=C(NNS(=O)(=O)c1ccc(Cl)cc1Cl)c1cccnc1Nc1ccc(Cl)cc1
measured-target: MCF7 breast
assigned-label: false

Now take the following compound into account.
[in] Recorded test outcome, item `CC(C)C[C@H](NC(=O)CCn1ccc2ccccc2c1=O)B(O)O`
[out] false

====

Tested on: MALME-3M melanoma
Assay: NCI tumour cell line growth inhibition, 48 h
Reported TGI values follow for various molecules
Provide only the numeric value, understood in µM.

[in] Fill in: TGI of `C=CCc1cc(Nc2c3ccc(Cl)cc3nc3ccc(OC)cc23)cc(CN(CC)CC)c1O` is ___
[out] 6.78

[in] Fill in: TGI of `CCCc1[nH]c2ccccc2c1-c1c(CCC)[nH]c2ccccc12` is ___
[out] 32.7

[in] Fill in: TGI of `CC1=NN(c2ccccc2)C(=O)/C1=C\c1ccc([N+](=O)[O-])cc1` is ___
[out] 69.3

[in] Fill in: TGI of `c1ccc(N=C2c3ccsc3C(=Nc3ccccc3)c3ccsc32)cc1` is ___
[out] 0.921

[in] Fill in: TGI of `CN1CCN(P2(=S)Oc3ccc4ccccc4c3-c3c(ccc4ccccc34)O2)CC1` is ___
[out] 50.8

====

Reported TGI values follow for various molecules
System: DLD-1 colon
Assay: NCI tumour cell line growth inhibition, 48 h

A selection of reference data follows.
molecule: COC(=O)C(C(=O)C(=O)Nc1ccc([N+](=O)[O-])cc1)c1nc2ccc([N+](=O)[O-])cc2[nH]c1=O (stereo not given)
TGI: > 100 µM
//
molecule: N#CC1(C#N)C(c2ccccc2)C=CC12OCCCO2 (stereo not given)
TGI: 95.4 µM
//
molecule: CCOC(=O)/C(I)=C/c1cc(OC)c(OC)c(OC)c1
TGI: 35.2 µM
//
molecule: O=C(/C=C/c1ccc(Cl)c(Cl)c1)c1cccc2ccccc12
TGI: 11.4 µM
//
molecule: N#CNc1nc(N)c(-c2ccc(Cl)cc2)c(C(=O)Nc2nccs2)n1
TGI: > 100 µM
//
molecule: O=C(Cc1nc2ccccc2o1)C(=O)Nc1cccc(C(F)(F)F)c1
TGI: > 100 µM

Field: next molecule
[in] Query the reported TGI for DLD-1 colon; item: `COc1ccc(-c2cc(=O)c3c(O)cccc3o2)c(OC)c1OC`
[out] > 100 µM

Data provenance is PubChem BioAssay (NCI).
